System: Sam68 (KHDRBS1)
Experiment: Sam68 small-molecule binders, primary screen, biochemical, small-molecule microarray, 635 nm fluorescence (AID 1125);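 also: score merges 667 nm channel intensity with signal to noise over triplicate slides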
Details: small-molecule microarray binding, higher = more signal
endpoint: composite z-score
Please give only the number in your answer, with no unit.

The following compounds have reported results that may help.
1. C=CCNC(=O)[C@H]1[C@@H]2C(=O)O[C@@H](c3ccccc3)[C@@H](c3ccccc3)N2[C@@H](c2ccccc2OCCO)[C@]12C(=O)N(C(=O)OCCOC)c1ccccc12 : 1.21
2. C=CCNC(=O)[C@H]1[C@@H]2C(=O)O[C@@H](c3ccccc3)[C@@H](c3ccccc3)N2[C@@H](c2ccc(O)cc2)[C@]12C(=O)Nc1ccc(C#CC3=CCCCC3)cc12 : 1.11

Below: the item to evaluate.
I have this compound here, `Cc1ccc(S[C@]2(C(=O)NCCCN(C)C)CC(=O)N(Cc3ccccc3Cl)[C@@H]2c2ccc(CO)cc2I)cc1` , and I need its recorded composite z-score.
-0.406

---

Test system: Sonic hedgehog protein (Shh)
Assay: small-molecule binders of Shh protein, primary screen, biochemical, small-molecule microarray, 635/667 nm fluorescence (AID 1151);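 also: Shh protein binding to compounds spotted on small-molecule microarray slides; score combines spot fluorescence intensity with signal-to-noise across triplicate slides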
Settings: small-molecule microarray binding, 635 nm fluorescence; higher = more signal
Class 1: composite z-score at least 0.7. Class 0: composite z-score below 0.7.

1. C=CCC(OC(C)=O)[C@@H]1[C@@H](N(Cc2ccc(-c3ccccc3)cc2)C(=O)c2ccc(C)cc2)c2cc(OCCCO)ccc2N1C(=O)c1ccc2ccccc2c1 (stereo partly drawn) : 0
2. CCCCC(O)C1C=CC2C(=O)NC(=O)C2N1Nc1ccccn1 (stereo not drawn) : 0

Please check the record `CC(C)C(=C=CC[C@@H](O)c1ccccc1OCCO)C[C@@H](O)c1cc(Cl)cc(Cl)c1O` and state if its composite z-score is at or above 0.7.
1

Next record, please: `C=C(COC)/C(=C/C[C@@H](OC(C)=O)c1ccccc1OCCO)c1cc(C(=O)OC)ccc1OC`
1

And then `COC(=O)[C@@]1(CCS(=O)(=O)c2ccccc2)N=C(c2ccc(OCCCO)cc2)O[C@H]1c1ccccc1N=[N+]=[N-]` , what is it?
1

Next: COc1ccc(NN2C(C(O)c3ccc(OC)cc3)C=CC3C(=O)N(C4CCCCC4)C(=O)C32)cc1 (stereo not drawn)
0

Input `COC(=O)[C@@]1(Cc2ccc(F)cc2)[C@H]2c3cc(C(=O)N(C)C)n(CCO)c3C[C@H]2CN1C(=O)c1ccccc1`
0

---

Below: a set of entries, each annotated with reported composite z-score.
Test: small-molecule microarray binders of probe aDKK1, primary screen, biochemical, biotinylated probe, 635/667 nm fluorescence (AID 1099);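 also: score merges 667nm spot fluorescence with signal to noise across triplicate slides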
Settings: higher = more signal
When you answer, write just the number.

1. C=CC[C@]1(C(=O)NCCCOC)N=C(c2ccc(OCCCO)cc2)O[C@H]1c1ccccc1 : 0.107
2. COc1ccc([Si](C)(C)[C@H]2[C@H](CCn3cc([C@H](O)c4ccccc4)nn3)O[C@@]3(C(=O)N(c4ccccc4)c4ccccc43)[C@@H]2C)cc1 : -0.125
3. CCCC=C(CCC)[C@@H](NC(=O)c1ccco1)c1ccc(C(=O)OC)cc1 : 0.241
4. CC(=O)c1ccc(C(O)C2C=CC3C(=O)NC(=O)C3N2Nc2ccc(Cl)cc2Cl)cc1 (stereo not drawn) : 0.947
5. C=CCC(OC(C)=O)[C@@H]1[C@@H](N(Cc2cccc3ccccc23)C(=O)c2cccc3ccccc23)c2cc(OCCCO)ccc2N1C(=O)Cc1ccc2ccccc2c1 (stereo partly drawn) : -0.177
6. O=C1C2C=CC(C(O)c3cccs3)N(Nc3ccccc3)C2C(=O)N1c1ccccc1 (stereo not drawn) : 0.742
7. N#Cc1ccc(C(O)C2C=CC3C(=O)N(c4ccccc4)C(=O)C3N2Nc2ccc([N+](=O)[O-])cc2)cc1 (stereo not drawn) : 0.904

Now take the following compound into account.
Quick one: composite z-score for `COC(=O)[C@@]1(Cc2ccc(F)cc2)[C@H]2c3cc(C(=O)N4CCCC4)n(CCO)c3C[C@H]2CN1C(=O)c1ccccc1` ?
0.532

---

Biological target: Dihydroorotate dehydrogenase (quinone), mitochondrial (Plasmodium falciparum (isolate 3D7)) (UniProt Q08210)
Sequence (Q08210 whole entry, looked up): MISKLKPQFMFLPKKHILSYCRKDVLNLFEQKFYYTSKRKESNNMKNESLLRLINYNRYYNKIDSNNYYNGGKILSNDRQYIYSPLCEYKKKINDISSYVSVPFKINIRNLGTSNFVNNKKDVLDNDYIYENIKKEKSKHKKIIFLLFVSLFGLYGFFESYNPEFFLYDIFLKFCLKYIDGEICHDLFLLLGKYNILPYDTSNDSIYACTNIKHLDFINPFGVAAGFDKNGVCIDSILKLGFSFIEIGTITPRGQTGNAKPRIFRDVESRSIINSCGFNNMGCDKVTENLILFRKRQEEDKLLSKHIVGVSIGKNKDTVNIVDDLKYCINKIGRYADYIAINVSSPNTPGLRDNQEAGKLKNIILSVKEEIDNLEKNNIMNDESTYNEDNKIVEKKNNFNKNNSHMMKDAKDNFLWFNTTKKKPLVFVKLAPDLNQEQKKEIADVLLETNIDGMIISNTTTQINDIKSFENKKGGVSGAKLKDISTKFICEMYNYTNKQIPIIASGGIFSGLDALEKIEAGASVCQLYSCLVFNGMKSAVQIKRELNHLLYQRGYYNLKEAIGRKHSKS
Test: PfDHODH enzyme inhibitors, primary screen, biochemical, C-terminal His tag, absorbance 600 nm (AID 1175);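 also: recombinant parasite enzyme with a five histidine tag at its C terminus; test concentration not given here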
Conditions: DCIP absorbance 600 nm, higher = more signal, called active from +8 up or from −8 down
Label true (1) when composite z-score >= -0.06; otherwise false (0).

1. CN1C(=O)C2C=CC(C(O)c3ccc(-c4ccccc4)s3)N(Nc3ccccc3)C2C1=O (centres undefined) : true (1)

# bool: composite z-score of C=CCC(OC(C)=O)[C@@H]1[C@@H](N(Cc2cccc3ccccc23)C(=O)c2cccc3ccccc23)c2cc(OCCCO)ccc2N1C(=O)Cc1ccc2ccccc2c1 (some centres undefined) >= -0.06
false (0)

Now try `CC(C)CNC(=O)[C@@]1(C)c2ccccc2C(=O)N(Cc2cc(F)cc(C(F)(F)F)c2)[C@H]1c1ccc(CO)cc1` .
true (1)

Repeat with `O=C1O[C@@H](c2ccccc2)[C@@H](c2ccccc2)N2[C@@H](c3ccc(O)cc3)[C@]3(C(=O)Nc4ccc(C#CC5=CCCCC5)cc43)[C@@H](C(=O)N3CCCCCCC3)[C@H]12`
false (0)

Here is the next compound: `C=C(COC)/C(=C/C[C@H](OC(=O)c1ccncc1)c1ccc(OCCO)cc1)c1cc(C(=O)OC)ccc1OC`
false (0)

---

Assay: cell viability in Huh7 cells, primary screen, cytotoxicity control for HCV replication inhibitor project, CellTiter-Glo luminescence, basal, 48 h (AID 1143);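 also: Huh7 hepatoma cells carrying a hepatitis C replication reporter with no stimulus; test concentration not given here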
Details: Huh7 HCV replicon, higher = more signal, called active from +8 up or from −8 down
endpoint: z-score
The answer should be a number; do not append a unit.

Example molecules with recorded z-score:
1. CC[C@H](C)C(=O)O[C@H]1CC[C@]2(C)C3=C(CCC2C1(C)C)[C@]1(C)CC[C@H]([C@H](C)CCCC(C)C)[C@@]1(C)CC3 (some centres not stated) : 0.15
2. COC(=O)[C@@]1(CCC(=O)OC(C)(C)C)N=C(c2ccc(OCCCO)cc2)O[C@H]1c1ccccc1CN=[N+]=[N-] : -2.35

I would be grateful if you could share the reported z-score for `CN(C)C(=O)[C@@]1(CCS(=O)(=O)c2ccccc2)N=C(c2ccc(OCCCO)cc2)O[C@H]1c1ccccc1N=[N+]=[N-]` .
-3.2

Same lookup for `O=c1cccc(-c2ccccc2C(F)(F)F)o1` , please.
-0.121

For C=CCC(OC(C)=O)[C@@H]1[C@@H](N(Cc2ccc(-c3cccc(C(F)(F)F)c3)o2)C(=O)c2cccc3ccccc23)c2cc(OCCCO)ccc2N1C(=O)c1ccc2ccccc2n1 (some centres not stated) then?
-1.33

Query `COc1ccc([Si](C)(C)[C@H]2[C@H](CC(=O)N3Cc4ccccc4C[C@H]3CO)O[C@@]3(C(=O)N(Cc4cccc(N5C(=O)c6cccc7cccc5c67)c4)c4ccccc43)[C@@H]2C)cc1` next
-4.55

Same again, this time with `C/C=C/CN(C(=O)C#Cc1ccccc1)[C@H](CO[Si](C)(C)C(C)(C)C)c1ccccc1`
-4.31

Next molecule up: CCCCCN1CC=CC23O[C@@H]4C=CCOC(=O)[C@@H]4[C@H]2C(=O)N(CCCCCO)[C@@H]3C1=O (some centres not stated)
-0.211

Thanks! And `CCC[C@@H]1[C@@H](Sc2ccccc2)[C@@H](C(=O)O)[C@H](c2ccc(C)cc2)N1S(=O)(=O)c1ccc(C)cc1` ?
-1.72

Continue with `COCCOC(=O)N1C(=O)[C@@]2(c3cc(C#CC4(O)CCCCCC4)ccc31)[C@H](c1ccc(OCCO)cc1)N1[C@H](c3ccccc3)[C@H](c3ccccc3)OC(=O)[C@H]1[C@@H]2C(=O)N1CCCCCCC1`
-4.81

Next record, please: `CC(C)=CCN(C(=O)C#Cc1ccccc1)[C@H](CO)c1ccccc1`
-8.76

Could you do the same for `CC(C)C(=C=CC[C@@H](O)c1ccc(OCCO)cc1)CCO` , please?
-2.09

Next molecule: `COCCOC(=O)N1C(=O)[C@@]2(c3cc(C#CC4(O)CCCCCC4)ccc31)[C@H](C(=O)NC[C@H](O)c1ccccc1)[C@H]1C(=O)O[C@H](c3ccccc3)[C@H](c3ccccc3)N1[C@@H]2c1ccc(O)cc1`
-0.622

---

Assay: binders of probe aHhip on microarray, primary screen, stem cell growth factor project, biochemical, small-molecule microarray, fluorescence 635/667 (AID 1087);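 also: score merges spot fluorescence at 667nm with spot signal to noise ratio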
Details: higher = more signal
Binary call on composite z-score: true from -0.007 upward, false beneath that.

See these solved cases before continuing.
1. CCc1cccc(NC(=O)O[C@H]2[C@H](OC(=O)Nc3ccc4c(c3)OCO4)[C@H](OC(=O)Nc3ccc4c(c3)OCO4)[C@@H](OC)O[C@@H]2CO)c1 : false
2. CCOC(=O)C1=C[C@@H](C(C)(C)C)N(S(=O)(=O)c2ccc(C)cc2)[C@H]1c1ccccc1Cl : true
3. COc1ccc([Si](C)(C)[C@@H]2[C@@H](CC(=O)N(CCO)Cc3ccccc3)O[C@]3(C(=O)N(Cc4ccc(N5CCC5=O)cc4)c4ccccc43)[C@H]2C)cc1 : false

Does composite z-score meet or surpass -0.007 for C=CCC(OC(C)=O)[C@@H]1[C@@H](N(Cc2ccc(-c3ccccc3)cc2)C(=O)c2ccc(C)cc2)c2cc(OCCCO)ccc2N1C(=O)c1ccc2ccccc2c1 (stereo partly drawn) ?
false
